system-under-test: T1, α4β1 (R&D Systems #5668-A4) (UniProt P13612 34-977; P05556 21-728)
T1 construct: bought; printed as αβ1; detected with mouse anti-human CD49d antibody 9F10; also called αβ1; A4B1
T1 sequence (P13612 34-977 limits assumed, chain 1 of 2): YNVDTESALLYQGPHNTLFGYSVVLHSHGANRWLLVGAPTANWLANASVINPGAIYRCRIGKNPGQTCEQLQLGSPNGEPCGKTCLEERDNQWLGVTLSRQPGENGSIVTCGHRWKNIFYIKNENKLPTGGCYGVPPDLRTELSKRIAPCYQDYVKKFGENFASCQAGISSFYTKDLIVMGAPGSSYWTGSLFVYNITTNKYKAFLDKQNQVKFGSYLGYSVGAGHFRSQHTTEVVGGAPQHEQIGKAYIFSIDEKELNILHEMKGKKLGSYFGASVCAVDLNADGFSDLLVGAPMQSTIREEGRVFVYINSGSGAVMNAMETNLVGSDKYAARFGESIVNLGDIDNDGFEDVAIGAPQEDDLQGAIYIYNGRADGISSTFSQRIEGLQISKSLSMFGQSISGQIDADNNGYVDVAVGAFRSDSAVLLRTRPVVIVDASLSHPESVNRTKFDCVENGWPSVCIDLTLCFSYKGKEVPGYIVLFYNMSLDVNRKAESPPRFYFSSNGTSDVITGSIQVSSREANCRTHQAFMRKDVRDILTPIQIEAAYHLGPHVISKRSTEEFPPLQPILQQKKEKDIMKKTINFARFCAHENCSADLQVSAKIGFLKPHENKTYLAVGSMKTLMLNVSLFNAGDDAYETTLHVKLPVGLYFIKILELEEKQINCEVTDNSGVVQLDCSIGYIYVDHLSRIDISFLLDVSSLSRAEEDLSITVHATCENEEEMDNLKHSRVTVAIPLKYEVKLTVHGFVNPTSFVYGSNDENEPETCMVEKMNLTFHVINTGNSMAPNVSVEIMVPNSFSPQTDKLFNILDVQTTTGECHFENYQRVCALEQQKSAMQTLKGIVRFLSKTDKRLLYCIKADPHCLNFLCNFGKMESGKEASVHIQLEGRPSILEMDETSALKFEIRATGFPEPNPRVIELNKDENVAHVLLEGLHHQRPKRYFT
T1 sequence (P05556 21-728 limits assumed, chain 2 of 2): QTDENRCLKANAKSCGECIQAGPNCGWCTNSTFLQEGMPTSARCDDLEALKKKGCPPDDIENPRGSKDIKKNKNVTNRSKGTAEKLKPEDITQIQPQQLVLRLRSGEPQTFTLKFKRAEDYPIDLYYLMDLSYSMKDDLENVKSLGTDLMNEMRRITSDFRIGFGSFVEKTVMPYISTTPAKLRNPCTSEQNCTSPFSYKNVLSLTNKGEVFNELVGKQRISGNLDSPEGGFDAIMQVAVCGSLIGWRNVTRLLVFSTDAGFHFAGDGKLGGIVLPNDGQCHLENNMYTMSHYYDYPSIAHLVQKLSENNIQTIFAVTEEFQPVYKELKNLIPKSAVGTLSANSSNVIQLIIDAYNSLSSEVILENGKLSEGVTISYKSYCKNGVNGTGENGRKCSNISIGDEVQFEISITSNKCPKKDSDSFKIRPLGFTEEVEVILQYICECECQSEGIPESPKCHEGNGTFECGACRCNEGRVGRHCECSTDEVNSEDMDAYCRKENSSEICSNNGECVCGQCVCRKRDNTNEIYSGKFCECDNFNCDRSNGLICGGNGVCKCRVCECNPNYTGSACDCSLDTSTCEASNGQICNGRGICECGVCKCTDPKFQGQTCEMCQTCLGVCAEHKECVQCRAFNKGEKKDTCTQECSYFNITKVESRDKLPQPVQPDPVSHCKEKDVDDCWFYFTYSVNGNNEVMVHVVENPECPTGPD
assay-details: α4β1-VCAM competition ELISA
quantity-kind: IC50 (nM)
Unit nM implied. Number only.

Which IC50 value is on record for Ac-CRSDTLCGE-NH2 (also: cyclised, mode not given here, also called control peptide) [SEQ ID NO 385] ?
2020

Reference source for all entries: patent US20160031944A1
